System: IRAK4;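 also: KINOMEscan kinase panel screen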
Condition Parameters: concentration: 1 μM, replicates: in singlicate; n = 1
Outcome Measure: %Inh (%)

{"Compound": "Clc1cc(Nc2ncnc3cc[nH]c23)ccc1OCc1ccccn1", "Assay Value": 2}
{"Compound": "Cc1cc(N2CCC(NS(=O)(=O)c3ccc(F)cc3)CC2)nc(Nc2cccc(C#N)c2)n1.O=C(O)C(F)(F)F", "Assay Value": 4}
{"Compound": "CCCc1ccc(S(=O)(=O)NC2CCN(c3ccnc(Nc4ccc(OC)cc4)n3)C2)cc1 (stereo not shown)", "Assay Value": 24}
{"Compound": "CS(=O)(=O)CCNCc1ccc(-c2ccc3ncnc(Nc4ccc(OCc5ccccc5)c(Cl)c4)c3c2)o1.Cl", "Assay Value": 0}
